# Tested on: CCRF-CEM
# Test Settings: human, CCRF-CEM leukemic cells, 72 h
Property Name: IC50 (nM)
Expressed in nM, but write only the number.

Query block: State the recorded IC50 for this entry: `C/C1=C/C[C@@H](/C(C)=C/c2csc(C)n2)OC(=O)C[C@H](O)C(C)(C)C(=O)[C@H](C)[C@@H](O)[C@@H](C)/C=C/C1`
Result block: 0.9

---

# System: lymphoma lines (SKIDLBCL and RL)
# Test Description: XTT cell proliferation, lymphoma lines
# Type: cell-based, human
# Test Settings: Homo sapiens; XTT
pIC50: −log10 of the molar value.
Property Name: pIC50

Query block: Look up pIC50: `C/C(=C\c1csc(C)n1)[C@@H]1C/C=C(/C(F)(F)F)C/C=C/[C@H](C)[C@H](O)[C@@H](C)C(=O)C(C)(C)[C@@H](O)CC(=O)O1`
Result block: 7.10 to 7.22

---

# Test Description: Octanol-water partition (POW) number by HPLC
# Assay type: physicochemical
# Test Settings: HPLC estimate, pH 7.4 buffer; read-out: Lipophilicity octanol/water partition (POW)
Property Name: chromatographic logP
Answer with a bare number; do not write a unit.

C/C1=C/C[C@@H](/C(C)=C/c2csc(C)n2)OC(=O)C[C@H](O)C(C)(C)C(=O)[C@H](C)[C@@H](O)[C@@H](C)/C=C/C1 | 3.3

Query block: Would you kindly share the measured chromatographic logP for `C/C(=C\c1csc(C)n1)[C@@H]1C/C=C(/C(F)(F)F)C/C=C/[C@H](C)[C@H](O)[C@@H](C)C(=O)C(C)(C)[C@@H](O)CC(=O)O1` ?
Result block: 3.3

Query block: Same question, C/C1=C/CC(/C(C)=C/c2csc(C)n2)OC(=O)C[C@H](O)C(C)(C)C(=O)[C@H](C)[C@@H](O)[C@@H](C)CCC1 (stereo partly shown) [Compound 1, 12,13-desoxyepothilone B, reference compound] this time
Result block: 4.4

Query block: Ok, now `C/C(=C\c1csc(C)n1)[C@@H]1C/C=C(/C(F)(F)F)CCC[C@H](C)[C@H](O)[C@@H](C)C(=O)C(C)(C)[C@@H](O)CC(=O)O1`
Result block: 4.1

---

Each entry below carries its reported IC50.
# Test system: CCRF-CEM
# Test Settings: human
Enter your answer as a number in nM; do not include the unit.

Consider the following illustrative entries.
C/C(=C\c1csc(C)n1)[C@@H]1C/C=C(/C(F)(F)F)C/C=C/[C@H](C)[C@H](O)[C@@H](C)C(=O)C(C)(C)[C@@H](O)CC(=O)O1 [Compound 29] | 3.2
C/C(=C\c1csc(C)n1)[C@@H]1C/C=C(/C(F)(F)F)CCC[C@H](C)[C@H](O)[C@@H](C)C(=O)C(C)(C)[C@@H](O)CC(=O)O1 [Compound 2, 26-trifluoro-12,13-desoxyepothilone B] | 9.3

Query molecule follows.
Query block: I would be grateful if you could share the reported IC50 for C/C1=C/CC(/C(C)=C/c2csc(C)n2)OC(=O)C[C@H](O)C(C)(C)C(=O)[C@H](C)[C@@H](O)[C@@H](C)CCC1 (stereo partly drawn) [Compound 1, 12,13-desoxyepothilone B, reference compound] .
Result block: 5.6

---

# System: CCRF-CEM
# Test Settings: read-out: Cytotoxic Efficacy IC50; CCRF-CEM leukemic cells; range of two experiments, seven concentration points
Property Name: IC50 (nM)
Give just the numeric value; nM need not be written.

Query block: Reported IC50 for C/C(=C\c1csc(C)n1)[C@@H]1C[C@@H]2O[C@]2(C)CCC[C@H](C)[C@H](O)[C@@H](C)C(=O)C(C)(C)[C@@H](O)CC(=O)O1 [Compound 51, Epothilone B, reference compound] : what is it?
Result block: 0.53

---

# Test system: CCRF-CEM/Taxol
# Assay type: cell-based, human
# Test Settings: Homo sapiens, CCRF-CEM, 72 h, read-out: IC50 (μM), CCRF-CEM/Taxol
Property Name: IC50 (µM)
Kindly provide the numeric value in µM only, without the unit symbol.

Query block: Quick one: IC50 of C/C1=C/CC(/C(C)=C/c2csc(C)n2)OC(=O)C[C@H](O)C(C)(C)C(=O)[C@H](C)[C@@H](O)[C@@H](C)CCC1 (stereo partly shown) [Compound 1, 12,13-desoxyepothilone B, reference compound] ?
Result block: 0.0057

---

# Test system: MRC-5
# Test Description: XTT cell growth inhibition, MRC-5
# Format: cell-based, human
# Test Settings: Homo sapiens, MRC5, read-out: IC50 (nM), MRC-5
Property Name: IC50 (nM)
Give your result in nM as a bare value.

Query block: Recall the recorded IC50 for C/C1=C/CC(/C(C)=C/c2csc(C)n2)OC(=O)C[C@H](O)C(C)(C)C(=O)[C@H](C)[C@@H](O)[C@@H](C)CCC1 (stereo partly shown) [Compound 1, 12,13-desoxyepothilone B, reference compound] with MRC-5 and state it.
Result block: 8.2

---

# Test Description: in vitro
# Test Settings: human, pooled human liver S9 fraction
Property Name: half-life

Query block: Recorded half-life of `C/C1=C/C[C@@H](/C(C)=C/c2csc(C)n2)OC(=O)C[C@H](O)C(C)(C)C(=O)[C@H](C)[C@@H](O)[C@@H](C)/C=C/C1` , please.
Result block: 4.9 h

---

# Tested on: CCRF-CEM/Taxol
# Type: cell-based, human
# Test Settings: Homo sapiens, CCRF-CEM, 72 h, read-out: IC50, CCRF-CEM/Taxol
compounds and their reported pIC50
Note on pIC50: it is the negative log10 of concentration, concentration in mol/L.

The examples below pair each entry with its known result.
C/C(=C\c1csc(C)n1)[C@@H]1C[C@H]2O[C@@]2(C)CCC[C@H](C)[C@H](O)[C@@H](C)C(=O)C(C)(C)[C@@H](O)CC(=O)O1 | 6.82
C/C1=C/CC(/C(C)=C/c2csc(C)n2)OC(=O)C[C@H](O)C(C)(C)C(=O)[C@H](C)[C@@H](O)[C@@H](C)CCC1 (stereo partly drawn) [Compound 1, 12,13-desoxyepothilone B, reference compound] | 8.34

Now for another entry.
Query block: // pIC50 lookup, key: C/C(=C\c1csc(C)n1)[C@@H]1C[C@@H]2O[C@]2(C)CCC[C@H](C)[C@H](O)[C@@H](C)C(=O)C(C)(C)[C@@H](O)CC(=O)O1 [Compound 51, Epothilone B, reference compound]
Result block: 8.96

---

# System: MDA MB435
# Test Description: XTT cell growth inhibition, MDA MB435
# Assay type: cell-based
# Test Settings: Homo sapiens, MDA-MB-435, read-out: IC50 (nM), MDA MB435
Property Name: IC50
# include the unit after the value

Query block: Suppose we examine the molecule C/C1=C/CC(/C(C)=C/c2csc(C)n2)OC(=O)C[C@H](O)C(C)(C)C(=O)[C@H](C)[C@@H](O)[C@@H](C)CCC1 (stereo partly shown) [Compound 1, 12,13-desoxyepothilone B, reference compound] ; what IC50 value has been reported?
Result block: 7.8 nM

---

# System: CCRF-CEM
# Test Settings: read-out: CCRF-CEM (IC50 (μM))
Property Name: IC50 (µM)
Value expressed in µM; do not type the unit.

Query block: I have this compound here, CC1=C/C[C@@H](/C(C)=C/c2csc(C)n2)OC(=O)C[C@H](O)C(C)(C)C(=O)[C@H](C)[C@@H](O)[C@@H](C)C\C=C\1 [Compound 6, epothilone 490, reference compound] , and I need its recorded IC50.
Result block: 0.02

---

# System: human xenografts in nude mice, such as MX-1
# Test Settings: mouse, in vivo
Maximal b.w. % drop without death values, listed per item
Give the quantity in %, number only.

C/C(=C\c1csc(C)n1)[C@@H]1C/C=C(/C(F)(F)F)CCC[C@H](C)[C@H](O)[C@@H](C)C(=O)C(C)(C)[C@@H](O)CC(=O)O1 [Compound 2, 26-trifluoro-12,13-desoxyepothilone B] | 22

Query block: Find the recorded Maximal b.w. % drop without death belonging to C/C(=C\c1csc(C)n1)[C@@H]1C/C=C(/C(F)(F)F)C/C=C/[C@H](C)[C@H](O)[C@@H](C)C(=O)C(C)(C)[C@@H](O)CC(=O)O1 [Compound 29] and report it.
Result block: 33

Query block: Same again, this time with C/C1=C/CC(/C(C)=C/c2csc(C)n2)OC(=O)C[C@H](O)C(C)(C)C(=O)[C@H](C)[C@@H](O)[C@@H](C)CCC1 (stereo partly shown) [Compound 1, 12,13-desoxyepothilone B, reference compound]
Result block: 32

Query block: Do the same for C/C1=C/C[C@@H](/C(C)=C/c2csc(C)n2)OC(=O)C[C@H](O)C(C)(C)C(=O)[C@H](C)[C@@H](O)[C@@H](C)/C=C/C1 [Compound 28] please
Result block: 29

---

# Test Description: Solubility in water
# Test Settings: water
// reported solubility per item

Consider the worked cases shown below.
C/C1=C/C[C@@H](/C(C)=C/c2csc(C)n2)OC(=O)C[C@H](O)C(C)(C)C(=O)[C@H](C)[C@@H](O)[C@@H](C)/C=C/C1 | 27 µg/mL
C/C1=C/CC(/C(C)=C/c2csc(C)n2)OC(=O)C[C@H](O)C(C)(C)C(=O)[C@H](C)[C@@H](O)[C@@H](C)CCC1 (stereo partly shown) [Compound 1, 12,13-desoxyepothilone B, reference compound] | 9.4 µg/mL
C/C(=C\c1csc(C)n1)[C@@H]1C/C=C(/C(F)(F)F)C/C=C/[C@H](C)[C@H](O)[C@@H](C)C(=O)C(C)(C)[C@@H](O)CC(=O)O1 | 20 µg/mL

Query block: // returns reported solubility for input `C/C(=C\c1csc(C)n1)[C@@H]1C/C=C(/C(F)(F)F)CCC[C@H](C)[C@H](O)[C@@H](C)C(=O)C(C)(C)[C@@H](O)CC(=O)O1`
Result block: 8 µg/mL
